# ASSAY_REMARKS: Thermodynamic solubility (solid shaken in solvent at 37° C., filtrate by LC/UV)
# Assay type: physicochemical
# MEASUREMENT_CONDITIONS: organic solvent or mixture, thermodynamic from solid, ethanol, 24 h, read-out: Thermodynamic solubility, Ethanol, Mean
# Description: Briefly, 300 ul of solvent (ethanol, 0.1 M HCl or distilled H2O) were added to 14-16 mg of the solid compound (5 parallel measurements per sample, per solvent, mean concentrations 93-107 mM). The mixtures were shaken at 37° C. for 24 and 72 hours. Concentrations of the filtrates were determined by liquid chromatography with UV detector (LC/UV) with 3-point calibration. Crystal form was checked by X-ray powder diffraction (XRPD) after recovering the slurry at 24 and 72 hours. […]
READOUT_KIND: solubility thermodynamic at 24 h (mM)

I: CC(=O)O[C@]1(C(C)=O)CC[C@H]2[C@@H]3CCC4=CC(=O)CCC4=C3[C@@H](c3ccc(C(C)=O)cc3)C[C@@]21C
II: CC(=O)OCC(=O)[C@@]1(OC(C)=O)CC[C@H]2[C@@H]3CCC4=CC(=O)CCC4=C3[C@@H](c3ccc(C(C)=O)cc3)C[C@@]21C
Prompt line: Pick the one with the larger solubility thermodynamic at 24 h: I vs II Provide the label of your selected option as the answer.
Response line: II

---

# ASSAY_REMARKS: Thermodynamic solubility (solid shaken in solvent at 37° C., filtrate by LC/UV)
# Assay type: physicochemical
# MEASUREMENT_CONDITIONS: organic solvent or mixture, thermodynamic from solid, ethanol, 72 h, read-out: Thermodynamic solubility, Ethanol, Mean
READOUT_KIND: solubility thermodynamic at 72 h (mM)

a: CC(=O)O[C@]1(C(C)=O)CC[C@H]2[C@@H]3CCC4=CC(=O)CCC4=C3[C@@H](c3ccc(C(C)=O)cc3)C[C@@]21C
b: CC(=O)OCC(=O)[C@@]1(OC(C)=O)CC[C@H]2[C@@H]3CCC4=CC(=O)CCC4=C3[C@@H](c3ccc(C(C)=O)cc3)C[C@@]21C
Prompt line: Hello, I am sorting some records. Could you say if a or b has the smaller solubility thermodynamic at 72 h value? Indicate which entry you chose by stating its label.
Response line: a
(a: 2.9 mM, b: 21.6 mM)

---

# ASSAY_REMARKS: Thermodynamic solubility (solid shaken in solvent at 37° C., filtrate by LC/UV)
# Assay type: physicochemical
# MEASUREMENT_CONDITIONS: simulated gastric fluid, thermodynamic from solid, 0.1M HCl, 72 h, read-out: Thermodynamic solubility, 0.1M HCl, Mean
READOUT_KIND: solubility thermodynamic at 72 h (µM)

CC(=O)O[C@]1(C(C)=O)CC[C@H]2[C@@H]3CCC4=CC(=O)CCC4=C3[C@@H](c3ccc(C(C)=O)cc3)C[C@@]21C : 0.45

P: COCC(=O)[C@@]1(OC(C)=O)CC[C@H]2[C@@H]3CCC4=CC(=O)CCC4=C3[C@@H](c3ccc(C(C)=O)cc3)C[C@@]21C
Q: CC(=O)OCC(=O)[C@@]1(OC(C)=O)CC[C@H]2[C@@H]3CCC4=CC(=O)CCC4=C3[C@@H](c3ccc(C(C)=O)cc3)C[C@@]21C
Prompt line: # min-compare on solubility thermodynamic at 72 h between P and Q Identify your selection by its label.
Response line: Q

---

# ASSAY_REMARKS: Thermodynamic solubility (solid shaken in solvent at 37° C., filtrate by LC/UV)
# Assay type: physicochemical
# MEASUREMENT_CONDITIONS: simulated gastric fluid, thermodynamic from solid, 0.1M HCl, 24 h, read-out: Thermodynamic solubility, 0.1M HCl, Mean
# Protocol: Briefly, 300 ul of solvent (ethanol, 0.1 M HCl or distilled H2O) were added to 14-16 mg of the solid compound (5 parallel measurements per sample, per solvent, mean concentrations 93-107 mM). The mixtures were shaken at 37° C. for 24 and 72 hours. Concentrations of the filtrates were determined by liquid chromatography with UV detector (LC/UV) with 3-point calibration. Crystal form was checked by X-ray powder diffraction (XRPD) after recovering the slurry at 24 and 72 hours. […]
READOUT_KIND: solubility thermodynamic at 24 h (µM)

COCC(=O)[C@@]1(OC(C)=O)CC[C@H]2[C@@H]3CCC4=CC(=O)CCC4=C3[C@@H](c3ccc(C(C)=O)cc3)C[C@@]21C [CDB-4239] : 140

a: CC(=O)OCC(=O)[C@@]1(OC(C)=O)CC[C@H]2[C@@H]3CCC4=CC(=O)CCC4=C3[C@@H](c3ccc(C(C)=O)cc3)C[C@@]21C [CDB-4241]
b: CC(=O)O[C@]1(C(C)=O)CC[C@H]2[C@@H]3CCC4=CC(=O)CCC4=C3[C@@H](c3ccc(C(C)=O)cc3)C[C@@]21C [REP-4510]
Prompt line: Consider entries a and b . Which has the numerically lower solubility thermodynamic at 24 h? Answer = label.
Response line: b
(b: 0.5 µM, a: 3.21 µM)

---

# ASSAY_REMARKS: Thermodynamic solubility (solid shaken in solvent at 37° C., filtrate by LC/UV)
# Type: physicochemical
# MEASUREMENT_CONDITIONS: thermodynamic from solid, distilled water, 24 h, read-out: Thermodynamic solubility, Distilled water, Mean
READOUT_KIND: solubility thermodynamic at 24 h (µM)

COCC(=O)[C@@]1(OC(C)=O)CC[C@H]2[C@@H]3CCC4=CC(=O)CCC4=C3[C@@H](c3ccc(C(C)=O)cc3)C[C@@]21C : 141

A: CC(=O)OCC(=O)[C@@]1(OC(C)=O)CC[C@H]2[C@@H]3CCC4=CC(=O)CCC4=C3[C@@H](c3ccc(C(C)=O)cc3)C[C@@]21C
B: CC(=O)O[C@]1(C(C)=O)CC[C@H]2[C@@H]3CCC4=CC(=O)CCC4=C3[C@@H](c3ccc(C(C)=O)cc3)C[C@@]21C
Prompt line: Lab notebook, comparison: A versus B , higher solubility thermodynamic at 24 h goes to which? Your choice should be expressed through its label.
Response line: A
